Source: patent US6914045B2

Give MIC Enterococcus avium (GC 4558) for every item shown.
Test system: Enterococcus sp.
assay_name: in vitro antibacterial evaluation, MIC by broth dilution
Assay type: cell-based
reported_conditions: broth dilution, inoculum 5×10^5 CFU/mL, 18 hours at 35° C.; strain GC 4558
State just the number; it will be interpreted in mg/L.

State the recorded MIC Enterococcus avium (GC 4558) for this entry: N=C1NCC(C(O)C2NC(=O)C(CC3CCC(OC4OC(CO)C(OC5OC6COC7(OC6C(O)C5O)C5CC6CC(C5)CC7C6)C(O)C4O)CC3)NC(=O)C(CC3CCCCC3)NC(=O)CNC(=O)C(CO)NC(=O)C(C(O)C3CNC(=N)N3C3OC(CO)C(O)C(O)C3O)NC2=O)N1 (single isomer, unassigned)
64

State the recorded MIC Enterococcus avium (GC 4558) for this entry: CC(c1ccccc1)C1NC(=O)CNC(=O)C(CO)NC(=O)C(C(O)C2CNC(=N)N2C2OC(CO)C(O)C(O)C2O)NC(=O)C(C(O)C2CNC(=N)N2)NC(=O)C(Cc2ccc(OC3OC(CO)C(OC4OC(CO)C(O)C5OC6(CCCCCCCCCCCC6)OC45)C(O)C3O)cc2)NC1=O (stereo not drawn) [Example 210a]
4

State the recorded MIC Enterococcus avium (GC 4558) for this entry: CC(c1ccccc1)C1NC(=O)CNC(=O)C(CO)NC(=O)C(C(O)C2CN(Cc3ccc(C(F)(F)F)cc3)C(=N)N2C2OC(CO)C(O)C(O)C2O)NC(=O)C(C(O)C2CNC(=N)N2)NC(=O)C(Cc2ccc(OC3OC(CO)C(OC4OC5COC6(OC5C(O)C4O)C4CC5CC(C4)CC6C5)C(O)C3O)cc2)NC1=O (stereo not drawn)
8

====

System: Staphylococcus sp.
assay_name: in vitro antibacterial evaluation, MIC by broth dilution
Assay type: cell-based
reported_conditions: strain GC 4549; broth dilution, 18 hours at 35° C.
Give MIC Coagulase Negative Staphylococcus (GC 4549) for every item shown.

State the recorded MIC Coagulase Negative Staphylococcus (GC 4549) for this entry: CC(c1ccccc1)C1NC(=O)CNC(=O)C(CO)NC(=O)C(C(O)C2CNC(=N)N2C2OC(CO)C(O)C(O)C2O)NC(=O)C(C(O)C2CNC(=N)N2)NC(=O)C(Cc2ccc(OC3OC(CO)C(OC4OC5COC(c6ccccc6)OC5C(O)C4O)C(O)C3O)c(I)c2)NC1=O (centres unmarked) [Example 196]
64 mg/L

State the recorded MIC Coagulase Negative Staphylococcus (GC 4549) for this entry: CC(C1CCCCC1)C1NC(=O)CNC(=O)C(CO)NC(=O)C(C(O)C2CNC(=N)N2C2OC(CO)C(O)C(O)C2O)NC(=O)C(C(O)C2CNC(=N)N2)NC(=O)C(C[C@H]2CC[C@H](O)CC2)NC1=O (some centres unmarked) [Example 54a]
>128 mg/L

====

Give MIC Streptococcus agalactiae (GC 4564) for every item shown.
Test system: Streptococcus sp.
assay_name: in vitro antibacterial evaluation, MIC by broth dilution
Type: cell-based
reported_conditions: broth dilution, 18 hours at 35° C.
Text: Methods for in vitro Antibacterial Evaluation (Table 1) […]
State just the number; it will be interpreted in mg/L.

State the recorded MIC Streptococcus agalactiae (GC 4564) for this entry: CC(c1ccccc1)C1NC(=O)CNC(=O)C(CO)NC(=O)C(C(O)C2CN(Cc3ccc(-c4ccccc4)cc3)C(=N)N2C2OC(CO)C(O)C(O)C2O)NC(=O)C(C(O)C2CNC(=NCc3ccc(-c4ccccc4)cc3)N2Cc2ccc(-c3ccccc3)cc2)NC(=O)C(Cc2ccc(OC3OC(CO)C(OC4OC(CO)C(O)C(O)C4O)C(O)C3O)cc2)NC1=O (centres unmarked)
32

State the recorded MIC Streptococcus agalactiae (GC 4564) for this entry: CC(c1ccccc1)C1NC(=O)CNC(=O)C(CO)NC(=O)C(C(O)C2CN(CCCCCCCCCCCCO)C(=N)N2C2OC(CO)C(O)C(O)C2O)NC(=O)C(C(O)C2CNC(=N)N2)NC(=O)C(Cc2ccc(OC3OC(CO)C(OC4OC(CO)C(O)C(O)C4O)C(O)C3O)cc2)NC1=O (centres unmarked)
128
